# targetOfAssay: T1, DnaK, glutathionylated at Cys-15 (E. coli, UniProt P0A6Y8 1-638, S-glutathionylated cysteine at Cys-15)
# T1 construct: DnaK (bacterial Hsp70), E. coli, gene dnaK cloned from genomic DNA of E. coli C41 cells; primers from the start to the stop codon; the single cysteine Cys-15 carries glutathione; Modification reported as complete by Alexa Fluor 350 staining and mass spectrometry; also called glutathionylated DnaK; not shown: His6, N-terminal, cleaved; Smt3, N-terminal, cleaved
# T1 sequence (P0A6Y8 whole entry): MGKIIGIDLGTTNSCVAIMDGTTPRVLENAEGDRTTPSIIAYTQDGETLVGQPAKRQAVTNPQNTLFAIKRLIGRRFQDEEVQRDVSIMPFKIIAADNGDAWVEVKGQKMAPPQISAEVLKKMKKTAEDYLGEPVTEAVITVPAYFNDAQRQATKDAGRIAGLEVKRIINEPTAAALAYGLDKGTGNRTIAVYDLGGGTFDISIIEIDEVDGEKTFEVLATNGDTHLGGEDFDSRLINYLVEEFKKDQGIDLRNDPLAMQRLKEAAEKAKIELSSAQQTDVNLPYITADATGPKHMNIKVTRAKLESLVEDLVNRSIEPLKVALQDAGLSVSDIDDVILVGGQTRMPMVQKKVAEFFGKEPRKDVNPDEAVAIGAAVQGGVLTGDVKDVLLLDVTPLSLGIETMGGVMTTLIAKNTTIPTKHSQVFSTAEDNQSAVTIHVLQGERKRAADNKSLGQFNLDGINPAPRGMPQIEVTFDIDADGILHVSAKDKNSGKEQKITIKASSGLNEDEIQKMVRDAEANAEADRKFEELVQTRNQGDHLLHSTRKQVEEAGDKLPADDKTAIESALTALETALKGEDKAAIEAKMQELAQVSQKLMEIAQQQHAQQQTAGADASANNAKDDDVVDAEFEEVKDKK
# methodSummary: fluorescence polarisation; steady state; 20 nM FITC-…, increasing concentrations of DnaK, 60 min incubation, Buffer B (50 mM Tris-HCl pH 7.5, 100 mM KCl, 5 mM MgCl2), room temperature; apo or ADP state; single site binding model
# testParameters: both partners purified
No end group written: not given here. *: point of attachment. FITC = O=C1OC2(c3ccc(O)cc3Oc3cc(O)ccc32)c2ccc(NC(=S)*)cc21
recordedMetric: Kd

What value of measured Kd is listed for {FITC}-ALLLSAPRR (also called FAR) [FITC-ALLLSAPRR peptide] ?
4 to 6 µM
